Source: patent US20260374818A1

Listing of recorded MIC by entry.
# Test system: Klebsiella pneumoniae
# experiment: MIC (broth microdilution) of peptides, K. pneumoniae
# Assay type: cell-based
# measurementSetup: mode of three biological replicates
Where a SMILES comes first, the peptide text is derived from it. [ ]: non-standard residue; d: D form.
measurementType: MIC

molecule | reportedValue
CC[C@@H](C)[C@@H](NC(=O)[C@@H](C)NC(=O)[C@@H](CCCNC(=N)N)NC(=O)[C@@H](CC(C)C)NC(=O)[C@@H](CCC(N)=O)NC(=O)[C@H](NC(=O)[C@@H](CCCNC(=N)N)NC(=O)[C@H](NC(=O)[C@H](NC(=O)[C@@H](CCCNC(=N)N)NC(=O)[C@H](NC(=O)[C@H](N)CCCNC(=N)N)C(C)C)C(C)C)[C@H](C)CC)C(C)C)C(N)=O [AB115-D, rvrvirvqlrai] (H-[dR][dV][dR][dV][dI][dR][dV][dQ][dL][dR][dA][dI]-NH2) | 0.8 µg/mL
CC[C@@H](C)[C@@H](NC(=O)[C@@H](C)NC(=O)[C@@H](CCCNC(=N)N)NC(=O)[C@@H](Cc1c[nH]c2ccccc12)NC(=O)[C@@H](CCC(N)=O)NC(=O)[C@H](N)C(C)C)C(=O)N[C@H](CCCNC(=N)N)C(=O)N[C@@H](C(=O)N[C@H](CCCNC(=N)N)C(=O)N[C@@H](C(=O)N[C@@H](C(=O)N[C@H](CCCNC(=N)N)C(N)=O)[C@H](C)CC)C(C)C)C(C)C [DJK5, vqwrairvrvir-NH2] (H-[dV][dQ][dW][dR][dA][dI][dR][dV][dR][dV][dI][dR]-NH2) | 3 µg/mL
CC[C@@H](C)[C@@H](NC(=O)[C@@H](C)NC(=O)[C@@H](CCCNC(=N)N)NC(=O)[C@@H](Cc1c[nH]c2ccccc12)NC(=O)[C@@H](CCCCN)NC(=O)[C@H](NC(=O)[C@@H](CCCNC(=N)N)NC(=O)[C@H](NC(=O)[C@H](NC(=O)[C@@H](CCCNC(=N)N)NC(=O)[C@H](NC(=O)[C@H](N)CCCNC(=N)N)C(C)C)C(C)C)[C@H](C)CC)C(C)C)C(N)=O [AB114-D, rvrvirvkwrai] (H-[dR][dV][dR][dV][dI][dR][dV][dK][dW][dR][dA][dI]-NH2) | 0.8 µg/mL

* * *

# Test system: P. aeruginosa PAO1 biofilms
# measurementSetup: read-out: Biofilm Inhibition IC50; PAO1, 24 hours, crystal violet
pIC50: −log10 of the molar value. Where a SMILES comes first, the peptide text is derived from it. [ ]: non-standard residue; d: D form.

compound | pIC50
CC[C@@H](C)[C@@H](NC(=O)[C@@H](C)NC(=O)[C@@H](CCCNC(=N)N)NC(=O)[C@@H](Cc1c[nH]c2ccccc12)NC(=O)[C@@H](CCC(N)=O)NC(=O)[C@H](N)C(C)C)C(=O)N[C@H](CCCNC(=N)N)C(=O)N[C@@H](C(=O)N[C@H](CCCNC(=N)N)C(=O)N[C@@H](C(=O)N[C@@H](C(=O)N[C@H](CCCNC(=N)N)C(N)=O)[C@H](C)CC)C(C)C)C(C)C [DJK5, vqwrairvrvir-NH2] (H-[dV][dQ][dW][dR][dA][dI][dR][dV][dR][dV][dI][dR]-NH2) | 5.13
